experiment_description: xn = mol fraction of the nth substance listed
study_conditions: 308.15 K; 101 kPa; x2 = 0; x3 = 0
In this section, each of the molecules is paired with its reported electrical conductivity.
Response body: numeric value in S/m, unit text excluded.

O + C[C@@H](O)[C@H](N)C(=O)O + CCCCCCCCCCCCCCCC[n+]1ccccc1.[Cl-] has a reported electrical conductivity of 6.7e-05

***
O + CCCCCCCCCCCCCCCC[n+]1ccccc1.O=C([O-])C(O)c1ccccc1 + CC(C)[C@H](N)C(=O)O has a reported electrical conductivity of 0.00017

O + NCC(=O)O + CCCCCCCCCCCCCCCC[n+]1ccccc1.[Cl-] has a reported electrical conductivity of 6.7e-05

O + C[C@H](N)C(=O)O + CCCCCCCCCCCCCCCC[n+]1ccccc1.[Cl-] has a reported electrical conductivity of 6.7e-05

O + CCCCCCCCCCCCCC[n+]1ccccc1.O=C([O-])C(O)c1ccccc1 + CC(C)C[C@H](N)C(=O)O has a reported electrical conductivity of 0.00017

O + CCCCCCCCCCCCCCCC[n+]1ccccc1.O=C([O-])C(O)c1ccccc1 + NCC(=O)O has a reported electrical conductivity of 0.00017

O + CCCCCCCCCCCCCCCC[n+]1ccccc1.O=C([O-])C(O)c1ccccc1 + CC(C)C[C@H](N)C(=O)O has a reported electrical conductivity of 0.00017

O + CCCCCCCCCCCCCCCC[n+]1ccccc1.O=C([O-])C(O)c1ccccc1 + NCC(=O)NCC(=O)O has a reported electrical conductivity of 0.00017
